Ref: patent US20220396617A1

NK92-mediated ADCC against HEK293A/human TIGIT cells, EC50 for assorted binders
Target: T1, human TIGIT expressed on HEK293A cells (human, UniProt Q495A1 22-244)
T1 sequence: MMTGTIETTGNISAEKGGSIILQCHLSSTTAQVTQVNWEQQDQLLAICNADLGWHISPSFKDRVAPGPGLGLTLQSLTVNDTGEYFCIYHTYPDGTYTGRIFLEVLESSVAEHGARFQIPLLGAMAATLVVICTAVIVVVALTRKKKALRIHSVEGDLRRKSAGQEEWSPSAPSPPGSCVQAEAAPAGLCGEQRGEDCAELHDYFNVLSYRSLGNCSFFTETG
Assay: cell-based or functional assay
Only the number, expressed in nM, is required.

[ask] Return reported NK92-mediated ADCC against HEK293A/human TIGIT cells, EC50; argument: 70E11-VH5VL3 (antibody, human IgG1, kappa, V domains shown, humanized, human IgG1/kappa; also called 70E11H5L3) VH: QVQLVQSGAEVKKPGASVKVSCKASGYTFTSYNVHWVKQTPGQGLEWIGTIYPGNLATSYNQKFKGKATLTADKSTSTVYMELSSLRSEDTAVYYCARSGTMDYWGQGTTVTVSS VL: EIVLTQSPGTLSLSPGERATLSCRASSSISSTYLHWYQQKPGASPKLLIYNTQNLASGIPDRFSGSGSGTSYTLTISRLEPEDFAVYYCQQFGGYPLITFGAGTKLELKR
[reply] 0.00714

[ask] Return reported NK92-mediated ADCC against HEK293A/human TIGIT cells, EC50; argument: 70E11-VH2VL4 (antibody, human IgG1, kappa, V domains shown, humanized, human IgG1/kappa; also called 70E11H2L4) VH: QVQLVQSGAEVKKPGASVKVSCKASGYTFTSYNVHWVRQAPGQGLEWMGTIYPGNLATSYNQKFKGRVTLTADTSTSTVYMELSSLRSEDTAVYYCARSGTMDYWGQGTTVTVSS VL: EIVLTQSPGTLSLSPGERATMTCRASSSISSTYLHWYQQKPGASPKLLIYNTQNLASGVPARFSGSGSGTSYTLTISRLEPEDFAVYYCQQFGGYPLITFGAGTKLELKR
[reply] 0.0172

[ask] Return reported NK92-mediated ADCC against HEK293A/human TIGIT cells, EC50; argument: 149G11-VH4VL2 (antibody, human IgG1, kappa, V domains shown, humanized, human IgG1/kappa) VH: QVQLVQSGAEVKKPGASVKVSCKASGYTFTNYWIHWVKQRPGHGLEWIGDIYPGGRYSNYNEKFRGRVTLTADTSTSTVYMELSSLTSEDTAVYYCARYYESAMDFWGQGTTVTVSS VL: DIVMTQSPDSLAVSLGERATINCKSSQNLLYNSNQKSYLAWFQQKPGQPPKLLIYWASTRESGVPDRFSGSGSGTDFTLTISSLQAEDLAVYYCQQYYNYPFTFGAGTKLELKR
[reply] 0.0184

[ask] Return reported NK92-mediated ADCC against HEK293A/human TIGIT cells, EC50; argument: 149G11-VH2VL2 (antibody, human IgG1, kappa, V domains shown, humanized, human IgG1/kappa) VH: QVQLVQSGAEVKKPGASVKVSCKASGYTFTNYWIHWVRQAPGQGLEWIGDIYPGGRYSNYNEKFRGRVTLTADTSTSTVYMELSSLTSEDTAVYYCARYYESAMDFWGQGTTVTVSS VL: DIVMTQSPDSLAVSLGERATINCKSSQNLLYNSNQKSYLAWFQQKPGQPPKLLIYWASTRESGVPDRFSGSGSGTDFTLTISSLQAEDLAVYYCQQYYNYPFTFGAGTKLELKR
[reply] 0.0162

[ask] Return reported NK92-mediated ADCC against HEK293A/human TIGIT cells, EC50; argument: 70E11-VH4VL3 (antibody, human IgG1, kappa, V domains shown, humanized, human IgG1/kappa) VH: QVQLVQSGAEVKKPGASVKVSCKASGYTFTSYNVHWVKQTPGQGLEWIGTIYPGNLATSYNQKFKGRVTLTADKSTSTVYMELSSLRSEDTAVYYCARSGTMDYWGQGTTVTVSS VL: EIVLTQSPGTLSLSPGERATLSCRASSSISSTYLHWYQQKPGASPKLLIYNTQNLASGIPDRFSGSGSGTSYTLTISRLEPEDFAVYYCQQFGGYPLITFGAGTKLELKR
[reply] 0.00729

Others:
[ask] Return reported NK92-mediated ADCC against HEK293A/human TIGIT cells, EC50; argument: 149G11-VH3VL3 (antibody, human IgG1, kappa, V domains shown, humanized, human IgG1/kappa) VH: QVQLVQSGAEVKKPGASVKVSCKASGYTFTNYWIHWVKQAPGQGLEWIGDIYPGGRYSNYNEKFRGRVTLTADTSTSTVYMELSSLTSEDTAVYYCARYYESAMDFWGQGTTVTVSS VL: DIVMTQSPDSLAVSLGERATVNCKSSQNLLYNSNQKSYLAWFQQKPGQSPKLLIYWASTRESGVPDRFSGSGSGTDFTLTISSLQAEDLAVYYCQQYYNYPFTFGAGTKLELKR
[reply] 0.014

[ask] Return reported NK92-mediated ADCC against HEK293A/human TIGIT cells, EC50; argument: 70E11-VH3VL3 (antibody, human IgG1, kappa, V domains shown, humanized, human IgG1/kappa) VH: QVQLVQSGAEVKKPGASVKVSCKASGYTFTSYNVHWVRQAPGQGLEWIGTIYPGNLATSYNQKFKGRVTLTADKSTSTVYMELSSLRSEDTAVYYCARSGTMDYWGQGTTVTVSS VL: EIVLTQSPGTLSLSPGERATLSCRASSSISSTYLHWYQQKPGASPKLLIYNTQNLASGIPDRFSGSGSGTSYTLTISRLEPEDFAVYYCQQFGGYPLITFGAGTKLELKR
[reply] 0.0191

[ask] Return reported NK92-mediated ADCC against HEK293A/human TIGIT cells, EC50; argument: 149G11-VH2VL3 (antibody, human IgG1, kappa, V domains shown, humanized, human IgG1/kappa; also called 149G11H2L3) VH: QVQLVQSGAEVKKPGASVKVSCKASGYTFTNYWIHWVRQAPGQGLEWIGDIYPGGRYSNYNEKFRGRVTLTADTSTSTVYMELSSLTSEDTAVYYCARYYESAMDFWGQGTTVTVSS VL: DIVMTQSPDSLAVSLGERATVNCKSSQNLLYNSNQKSYLAWFQQKPGQSPKLLIYWASTRESGVPDRFSGSGSGTDFTLTISSLQAEDLAVYYCQQYYNYPFTFGAGTKLELKR
[reply] 0.00795

[ask] Return reported NK92-mediated ADCC against HEK293A/human TIGIT cells, EC50; argument: 149G11-VH3VL2 (antibody, human IgG1, kappa, V domains shown, humanized, human IgG1/kappa) VH: QVQLVQSGAEVKKPGASVKVSCKASGYTFTNYWIHWVKQAPGQGLEWIGDIYPGGRYSNYNEKFRGRVTLTADTSTSTVYMELSSLTSEDTAVYYCARYYESAMDFWGQGTTVTVSS VL: DIVMTQSPDSLAVSLGERATINCKSSQNLLYNSNQKSYLAWFQQKPGQPPKLLIYWASTRESGVPDRFSGSGSGTDFTLTISSLQAEDLAVYYCQQYYNYPFTFGAGTKLELKR
[reply] 0.013

[ask] Return reported NK92-mediated ADCC against HEK293A/human TIGIT cells, EC50; argument: 70E11-VH4VL2 (antibody, human IgG1, kappa, V domains shown, humanized, human IgG1/kappa) VH: QVQLVQSGAEVKKPGASVKVSCKASGYTFTSYNVHWVKQTPGQGLEWIGTIYPGNLATSYNQKFKGRVTLTADKSTSTVYMELSSLRSEDTAVYYCARSGTMDYWGQGTTVTVSS VL: EIVLTQSPGTLSLSPGERATLSCRASSSISSTYLHWYQQKPGQAPKLLIYNTQNLASGIPDRFSGSGSGTSFTLTISRLEPEDFAVYYCQQFGGYPLITFGAGTKLELKR
[reply] 0.00912

[ask] Return reported NK92-mediated ADCC against HEK293A/human TIGIT cells, EC50; argument: 149G11-VH4VL3 (antibody, human IgG1, kappa, V domains shown, humanized, human IgG1/kappa) VH: QVQLVQSGAEVKKPGASVKVSCKASGYTFTNYWIHWVKQRPGHGLEWIGDIYPGGRYSNYNEKFRGRVTLTADTSTSTVYMELSSLTSEDTAVYYCARYYESAMDFWGQGTTVTVSS VL: DIVMTQSPDSLAVSLGERATVNCKSSQNLLYNSNQKSYLAWFQQKPGQSPKLLIYWASTRESGVPDRFSGSGSGTDFTLTISSLQAEDLAVYYCQQYYNYPFTFGAGTKLELKR
[reply] 0.0177
